# Staphylococcus aureus ATCC 6538p: MIC values follow
Remember to follow the number with its unit.

Worked examples follow.
CCC1OC(=O)CC(O)C(C)C(OC2OC(C)C(O)C(N(C)C)C2O)C(C)CC(C)C(=O)C=CC(C)=CC1COC1OC(C)C(O)C(OC)C1OC (stereo not shown); 0.2 µg/mL
CCC1OC(=O)C=CC(C)C(OC2OC(C)C(O)C(N(C)C)C2O)C(C)CC(C)C(=O)C=CC(C)=CC1COC1OC(C)C(O)C(OC)C1OC (stereo not shown); 0.2 µg/mL
CC[C@H]1OC(=O)C[C@@H](O)[C@H](C)[C@@H](O[C@@H]2O[C@H](C)[C@@H](O[C@H]3C[C@@](C)(O)[C@@H](O)[C@H](C)O3)[C@H](N(C)C)[C@H]2O)[C@@H](CC=O)C[C@@H](C)C(=O)/C=C/C(C)=C/[C@@H]1CO[C@@H]1O[C@H](C)[C@@H](O)[C@@H](OC)[C@H]1OC; 1.6 µg/mL
CCC1OC(=O)CC(O)C(C)C(OC2OC(C)C(OC3CC(C)(O)C(O)C(C)O3)C(N(C)C)C2O)C(C)CC(C)C(=O)C=CC(C)=CC1COC1OC(C)C(O)C(OC)C1OC (stereo not shown); 1.6 µg/mL
CCC1CC(C)C(=O)C=CC(C)=CC(COC2OC(C)C(O)C(OC)C2OC)C(CC)OC(=O)CC(O)C(C)C1OC1OC(C)C(O)C(N(C)C)C1O (stereo not shown); 0.2 µg/mL
CCC1OC(=O)CC(OC(=O)Cc2ccccc2)C(C)C(OC2OC(C)C(O)C(N(C)C)C2O)C(C)CC(C)C(=O)C=CC(C)=CC1COC1OC(C)C(O)C(OC)C1OC (stereo not shown); 0.2 µg/mL

Continue with the molecule presented below.
Param item = CC[C@H]1OC(=O)[C@H](C)[C@@H](O[C@H]2C[C@@](C)(OC)[C@@H](O)[C@H](C)O2)[C@H](C)[C@@H](O[C@@H]2O[C@H](C)C[C@H](N(C)C)[C@H]2O)[C@](C)(O)C[C@@H](C)C(=O)[C@H](C)[C@@H](O)[C@]1(C)O [erythromycin, reference compound] ; retrieve measured MIC.
0.2 µg/mL
